Attribution: ChEMBL document CHEMBL4811313

- Test System: Eukaryotic translation initiation factor 4E-binding protein 1 (Homo sapiens) (UniProt Q13541)
- Sequence (Q13541 whole entry): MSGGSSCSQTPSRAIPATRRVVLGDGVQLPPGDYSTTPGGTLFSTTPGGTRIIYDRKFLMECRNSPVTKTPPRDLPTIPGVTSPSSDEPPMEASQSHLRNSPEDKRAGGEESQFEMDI
- Assay Info: Inhibition of 4E-BP1 phosphorylation in human HCT116 cells at 2 uM after 6 hrs by Western blot analysis
- Assay type: cell-based
- Condition Label: HCT-116
Calls of active or inactive are those of the source. The calls are words filed in the database; no cut-off is given here.
Measurement Type: inhibition

INSERT INTO measurements (molecule, result) VALUES
  ('C[C@@H]1O[C@@H](O[C@H]2[C@H](O)C[C@H](c3ccc4c(c3O)C(=O)C3=C(C4=O)[C@@]4(O)C(=O)C[C@](C)(O[C@H]5CC[C@H](O[C@H]6C=CC(=O)[C@H](C)O6)[C@H](C)O5)C[C@@]4(O)C=C3)O[C@@H]2C)C=CC1=O [SAQUAYAMYCINS A]', 'Active'),
  ('Cc1cc(O)c2c(c1)C[C@@H](O)C1=C2C(=O)c2c(O)ccc(O[C@H]3C[C@@H](O)[C@H](O[C@H]4C[C@@H](O[C@H]5CC[C@H](O[C@H]6C[C@@H](O)[C@H](O[C@H]7C[C@@H](O[C@H]8CC[C@H](O)[C@H](C)O8)[C@H](O)[C@@H](C)O7)[C@@H](C)O6)[C@H](C)O5)[C@H](O)[C@@H](C)O4)[C@@H](C)O3)c2C1=O [LANDOMYCIN A]', 'Active'),
  ('C[C@@H]1O[C@@H](O[C@H]2CC[C@H](O[C@@]3(C)CC(=O)[C@]4(O)C5=C(C=C[C@]4(O)C3)C(=O)c3c(ccc([C@H]4C[C@@H](O)[C@H](O[C@H]6CC[C@H](O)[C@H](C)O6)[C@@H](C)O4)c3O)C5=O)O[C@H]2C)C=CC1=O [SAQUAYAMYCIN K]', 'Active'),
  ('C[C@@H]1O[C@@H](O[C@H]2CC[C@H](O[C@@]3(C)CC(=O)[C@]4(O)C5=C(C=C[C@]4(O)C3)C(=O)c3c(ccc([C@H]4C[C@H]6O[C@H]7CC(=O)[C@H](C)O[C@H]7O[C@H]6[C@@H](C)O4)c3O)C5=O)O[C@H]2C)C=CC1=O', 'Active'),
  ('C[C@@H]1O[C@H]2O[C@H]3[C@@H](C)O[C@@H](c4ccc5c(c4O)C(=O)C4=C(C5=O)[C@@]5(O)C(=O)C[C@](C)(O[C@H]6CC[C@H](O[C@H]7CC[C@H](O)[C@H](C)O7)[C@H](C)O6)C[C@@]5(O)C=C4)C[C@H]3O[C@H]2CC1=O', 'Active'),
  ('Cc1cc(O)c2c(c1)C[C@@H](O)C1=C2C(=O)c2cccc(O[C@H]3C[C@@H](O)[C@H](O[C@H]4C[C@@H](O[C@H]5CC[C@H](O[C@H]6CC[C@H](O[C@H]7C[C@@H](O[C@H]8CC[C@H](O)[C@H](C)O8)[C@H](O)[C@@H](C)O7)[C@@H](C)O6)[C@H](C)O5)[C@H](O)[C@@H](C)O4)[C@@H](C)O3)c2C1=O', 'Active');
